The origin of these recorded values is PubChem BioAssay (NCATS).

Experiment: Quantitative high throughput screen for delayed death inhibitors of the malarial parasite plastid, 48 hour incubation (AID 488752); further: nearly all actives have a fitted effect of over 65% in size
Conditions: Plasmodium falciparum growth; series mostly up to 28.7 µM
Results filed as inconclusive are left out. Activity calls are given as the source filed them. The call rests on the fitted dose curve; in most records, active means well fitted inhibition curve with a large enough effect; inconclusive means small, poorly fitted or top-dose-only effect, or effect the other way; inactive means flat fitted curve, though single readings scatter.
I would appreciate it if you answered using one of these outcomes: active, inactive

In this assay, the call recorded for NNCc1cccc(O)c1 was what?
active

And then COc1ccc2c3c1O[C@H]1C(=O)CC[C@@]4(O)C(C2)N(CC2CC2)CCC314 (some centres not stated) , what is it?
inactive

Same question for C[C@H]1C2Cc3ccc(O)cc3[C@]1(C)CCN2CC1CC1 please.
inactive

And for CCNC(=O)[C@H]1O[C@@H](n2cnc3c(N)ncnc32)[C@H](O)[C@H]1O ?
inactive

Item: NCC#Cc1ccccc1
inactive

Request: CCCN1CCc2cccc3c2C1Cc1ccc(O)c(O)c1-3 (configuration not stated)
active

Now the same for CN1CCC23CCCC[C@H]2C1Cc1ccc(O)cc13 (some centres not stated)
inactive
